# target_under_test: 5HT6-human recombinant receptor (Homo sapiens)
# Sequence (P50406 whole entry): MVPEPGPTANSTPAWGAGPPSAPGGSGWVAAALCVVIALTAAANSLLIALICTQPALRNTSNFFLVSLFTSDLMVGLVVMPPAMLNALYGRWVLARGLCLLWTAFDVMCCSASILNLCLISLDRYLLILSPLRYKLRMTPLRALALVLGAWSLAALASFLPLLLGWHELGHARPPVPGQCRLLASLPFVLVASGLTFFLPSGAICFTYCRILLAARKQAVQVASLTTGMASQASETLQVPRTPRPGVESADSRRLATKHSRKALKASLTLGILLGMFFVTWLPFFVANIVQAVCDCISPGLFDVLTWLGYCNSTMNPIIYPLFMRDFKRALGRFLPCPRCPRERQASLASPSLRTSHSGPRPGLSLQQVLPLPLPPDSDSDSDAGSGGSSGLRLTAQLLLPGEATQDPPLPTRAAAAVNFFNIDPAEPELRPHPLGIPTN
# experiment_description: Binding to serotonin receptor 5HT6 ([3H]-LSD radioligand displacement)
# measurement_setup: membranes of HEK-293 cells expressing 5HT6-human recombinant receptor; [3H]-LSD 2.7 nM; 60 min, 37° C.
Structures can show the parent of a compound that is named as a salt.
readout_name: Ki (nM)
# unit: nM | format: bare number

Query `O=C1CCc2ccc(NS(=O)(=O)c3c(Cl)nc4n3CCS4)cc21` yields Ki of 46

Query CN(C)CCc1c[nH]c2ccc(NS(=O)(=O)c3c(Cl)nc4n3CCS4)cc12 [Compound 3, hydrochloride] yields Ki of 16.9

Query `CC(=O)N1CCc2cc(NS(=O)(=O)c3c(Cl)nc4n3CCS4)ccc21` yields Ki of 5.4

Query O=S(=O)(Nc1ccc2c(c1)CCNC2)c1c(Cl)nc2n1CCS2 [Compound 1, hydrochloride] yields Ki of 8.4

All values here come from patent US20110092540A1.
